Reference source: ChEMBL document CHEMBL1149139

# target.entity: Interstitial collagenase (Homo sapiens, UniProt P03956)
# Sequence (P03956 whole entry): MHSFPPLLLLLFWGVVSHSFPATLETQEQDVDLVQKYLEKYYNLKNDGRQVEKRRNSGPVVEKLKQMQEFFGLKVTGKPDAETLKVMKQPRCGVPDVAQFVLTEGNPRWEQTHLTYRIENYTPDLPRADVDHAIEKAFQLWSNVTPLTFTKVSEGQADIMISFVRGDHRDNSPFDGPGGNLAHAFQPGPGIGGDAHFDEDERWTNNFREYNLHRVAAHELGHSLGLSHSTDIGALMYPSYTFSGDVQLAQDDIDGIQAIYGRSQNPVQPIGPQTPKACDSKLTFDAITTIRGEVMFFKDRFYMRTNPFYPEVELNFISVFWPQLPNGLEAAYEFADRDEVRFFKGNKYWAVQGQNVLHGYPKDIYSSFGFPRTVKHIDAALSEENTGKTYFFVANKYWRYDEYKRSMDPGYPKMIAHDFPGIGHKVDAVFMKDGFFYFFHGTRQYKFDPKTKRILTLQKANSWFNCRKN
# experiment.notes: Inhibition of human recombinant matrix metalloprotease 1
Overview of reported Ki across a group of compounds:

{"smiles.text": "COc1ccc(S(=O)(=O)N2C[C@@H](O)[C@@H](O)[C@H](O)[C@@H]2C(=O)NO)cc1", "censoring.qualifier": "=", "Ki, nM": 26}
{"smiles.text": "O=C(NO)[C@H]1[C@@H](O)[C@H](O)[C@H](O)CN1S(=O)(=O)c1ccc(OCc2ccccc2)cc1", "censoring.qualifier": ">", "Ki, nM": 850}
{"smiles.text": "O=C(NO)[C@H]1[C@@H](O)[C@H](O)[C@H](O)CN1S(=O)(=O)c1ccc(Oc2ccccc2)cc1", "censoring.qualifier": "=", "Ki, nM": 5.3}
{"smiles.text": "O=C(NO)[C@H]1[C@@H](O)[C@H](O)[C@H](O)CN1S(=O)(=O)c1ccc(-c2ccccc2)cc1", "censoring.qualifier": "=", "Ki, nM": 162}
